Property: Ki; scope: individual compounds
measured on: EGFR del746-750 T790M (Homo sapiens, UniProt P00533, DEL746-750/T790M)
Sequence (P00533 with tags, fused parts or gaps DEL746-750/T790M limits assumed): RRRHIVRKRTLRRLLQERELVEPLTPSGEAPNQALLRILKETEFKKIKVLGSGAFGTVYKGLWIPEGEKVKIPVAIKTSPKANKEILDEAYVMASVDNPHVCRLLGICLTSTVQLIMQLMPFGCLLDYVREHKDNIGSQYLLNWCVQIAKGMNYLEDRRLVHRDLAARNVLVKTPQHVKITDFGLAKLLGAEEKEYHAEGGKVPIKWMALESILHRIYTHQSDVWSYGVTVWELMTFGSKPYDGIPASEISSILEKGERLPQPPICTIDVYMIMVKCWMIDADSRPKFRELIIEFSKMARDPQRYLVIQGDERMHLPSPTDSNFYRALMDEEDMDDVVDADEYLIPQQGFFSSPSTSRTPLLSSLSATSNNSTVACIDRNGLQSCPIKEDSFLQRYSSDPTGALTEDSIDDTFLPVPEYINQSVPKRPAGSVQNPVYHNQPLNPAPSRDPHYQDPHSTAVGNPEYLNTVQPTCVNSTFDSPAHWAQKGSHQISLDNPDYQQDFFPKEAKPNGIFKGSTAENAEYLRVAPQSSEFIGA
test description: EGFR del746-750 T790M biochemical assay (Caliper mobility shift)
condition notes: 5 μM ATP, 30 min, room temperature; apparent Ki (Morrison) converted by Cheng-Prusoff, Km of ATP 2.1 μM; read-out: EGFR(T790M/d746-750) Ki
measurement label: Ki (µM)

>>> measurement("C[C@@H](O)c1nc2cnc(Nc3ccnc(N4CCC(O)C(F)C4)n3)cc2n1[C@H](C)C(F)(F)F (stereo partly shown)")
0.101
>>> measurement("CC[C@H](C)n1cc(C(=O)NC2CCOCC2)c2cnc(Nc3ccnc(N4CC[C@H](OC)[C@H](F)C4)n3)cc21 (single isomer, unassigned)")
0.00333
>>> measurement("CC(C)n1cc(C(=O)NC2CCOCC2)c2cnc(Nc3ccnc(-c4cnn(S(=O)(=O)C5CC5)c4)n3)cc21")
0.00147
>>> measurement("CC(C)n1c(CO)nc2cnc(Nc3ccnc(N4CCC5(OCCO5)C(F)C4)n3)cc21 (stereo not shown)")
0.036
>>> measurement("CO[C@@H]1CCN(c2nccc(Nc3cc4c(cn3)nc(CO)n4C(C)C)n2)C[C@@H]1Cl (racemic)")
0.146
>>> measurement("C[C@H](n1c(CO)nc2cnc(Nc3ccnc(N4CC[C@H](O)[C@H](F)C4)n3)cc21)C(C)(F)F (racemic)")
0.00345
>>> measurement("CC(C)n1c([C@H](C)O)nc2cnc(Nc3ccnc(-c4cnn(S(=O)(=O)C5CC5)c4)n3)cc21")
0.014

The reported numbers originate from patent US9890152B2.
